Recorded TGI for the following compounds
Tested on: OVCAR-5 ovarian
method.notes: NCI tumour cell line growth inhibition, 48 h

stdin: Any idea what TGI was measured for NC(=O)Nc1c([N+](=O)[O-])cc(C(F)(F)F)cc1[N+](=O)[O-] ?
stdout: > 100 µM

stdin: How about this compound: CCC12CC(c3ccccc3)C(C(=O)N1)C(=O)N2 (centres undefined)
stdout: > 100 µM

stdin: Further, for CC[C@@H]1CC[C@@H]2[C@H](CC[C@]3(C)[C@@H](O)CC[C@@H]23)[C@H]1CO ?
stdout: > 100 µM

stdin: Also Cc1nc2c(O)cc3c4c(n(Cc5ccccc5)c3c2nc1C)C(=O)CCC4 ?
stdout: > 100 µM

stdin: Check CC(C(=O)O)/C(=C\c1ccc2c(c1)OCO2)C(=O)O (centres undefined) too.
stdout: > 61.5 µM

stdin: Param item: CC1=NN(C(=O)CC(=O)Nc2cccc(C)c2)C(=O)C1N=Nc1ccc(S(=O)(=O)c2ccc(N=NC3C(=O)N(C(=O)CC(=O)Nc4cccc(C)c4)N=C3C)cc2)cc1 (centres undefined)
stdout: > 100 µM

stdin: Same read-out for O=C(NCCNc1nccc(-c2c(-c3cccc(O)c3)nc3sccn23)n1)Nc1cccc(C(F)(F)F)c1 ?
stdout: 65.3 µM

stdin: Then what about the compound Cc1cc2cc3cc(C)c(N)cc3[n+](C)c2cc1N ?
stdout: 16 µM

stdin: Further, for NC(=O)CCC(NC(=O)Cc1ccccc1)C(=O)O (centres undefined) (tested in a mixture with another compound) ?
stdout: > 8130 µM

----------
Quick reference: TGI of the listed items.
Tested on: SF-268 CNS
method.notes: NCI tumour cell line growth inhibition, 48 h

stdin: Which TGI value is on record for O=C1C2=Cc3ccccc3OC2(O)Oc2ccc(O)cc21 (centres undefined) ?
stdout: > 100 µM

stdin: Please give the result for COc1ccc(C(=O)C(C(=O)C(=O)NC2C3CC4CC(C3)CC2C4)c2ccc(OC)cc2)cc1 (centres undefined) too.
stdout: > 100 µM

stdin: Let us now turn to COc1cc([C@H]2CC(=O)C[C@@H](c3cc(OC)c(OC)c(OC)c3)C23C(=O)c2ccccc2C3=O)cc(OC)c1OC
stdout: > 100 µM

stdin: And the next one, c1ccc(CCN2CCOCC2)nc1 ?
stdout: > 100 µM

stdin: Record: COc1cc(C2S/C(=C/c3ccccc3)C(=O)N2c2cc(Cl)c(Cl)cc2Cl)cc(OC)c1OC (centres undefined)
stdout: > 100 µM

stdin: Proceed to CC(C)[Si](OC1=C(c2ccccc2)C(NC(=O)/C=C/c2ccc([N+](=O)[O-])cc2)CCC1)(C(C)C)C(C)C (centres undefined)
stdout: > 100 µM

Others:
stdin: Sample CC1OC(OC2C(CO)OC(O[C@H]3CC[C@@]4(C)C(=CC[C@H]5[C@@H]6C[C@@H]7O[C@](O)(CC[C@H](C)COC8OC(CO)C(O)C(O)C8O)[C@@H](C)[C@@H]7[C@@]6(C)CC[C@@H]54)C3)C(OC3OC(C)C(O)C(O)C3O)C2O)C(O)C(O)C1O (some centres undefined) — what was its TGI?
stdout: 11.5 µM

stdin: Try this molecule too: O=C(O)CP(=O)(O)O
stdout: > 100 µM

stdin: Check CN(C)CCNC1=CC(=O)c2nc3ccccc3c3ccnc1c23 too.
stdout: 21.5 µM

----------
System: BT-549 breast
method.notes: NCI tumour cell line growth inhibition, 48 h
assay.metric: TGI

Study these solved cases before continuing.
stdin: Can you share its TGI? I mean this molecule: COc1cc2c(cc1OC)-c1c(oc3cc(OC4OC(CO)C(O)C(O)C4O)c(OC)cc3c1=O)C(O)O2 (configuration not stated)
stdout: > 100 µM

stdin: Moving on to CNC(=O)C1CCCN1C(=O)C(Cc1cnc[nH]1)NC(=O)C1CCC(=O)N1 (configuration not stated)
stdout: > 100 µM

stdin: Lookup CNC(=O)NC(CCCCNC(=O)OCc1ccccc1)C(=O)OCc1ccccc1 (configuration not stated)
stdout: > 100 µM

New cases:
stdin: Item NC(=O)CCC(CCC(N)=O)(CCC(N)=O)[N+](=O)[O-] has what recorded TGI?
stdout: > 100 µM

stdin: Now consider CC1OC(OC2C(CO)OC(O[C@H]3CC[C@@]4(C)C(=CC[C@H]5[C@@H]6C[C@@H]7O[C@](O)(CC[C@H](CO)COC8OC(CO)C(O)C(O)C8O)[C@@H](C)[C@@H]7[C@@]6(C)CC[C@@H]54)C3)C(OC3OC(C)C(O)C(O)C3O)C2O)C(O)C(O)C1O (some centres not stated) and answer again.
stdout: > 100 µM

stdin: Next: CC(=O)O[C@H]1CC[C@@]2(C)C(=C[C@H](c3ccc(O)cc3)[C@H]3[C@@H]4CC[C@H](OC(C)=O)[C@@]4(C)CC[C@@H]32)C1
stdout: 29.4 µM

stdin: Ok, now Clc1ccc(C2=C(c3ccccc3)C(c3ccc(Cl)cc3)N3C(=N[C@H]4CCCC[C@@H]43)N2)cc1 (some centres not stated)
stdout: 28.6 µM

----------
Test system: 786-0 renal
method.notes: NCI tumour cell line growth inhibition, 48 h
Classification field: true (1) = TGI at or over 60 µM; false (0) = TGI under 60 µM.

Here's what some known entries look like.
stdin: hey, is TGI for this one >= 60 µM? NC1=CC(=O)c2nc3ccccc3c3ccnc1c23
stdout: true (1)

stdin: Same read-out for CC(C)[Si](OC1=C(C(=O)N(C)c2ccccc2Cl)CCCCC1)(C(C)C)C(C)C ?
stdout: true (1)

stdin: Repeat with CC1C2(C)OC(=N)C(C#N)(C(C)O2)C1(C#N)C#N (stereo not given)
stdout: true (1)

stdin: Now give it for CCOC(=O)c1c(Cl)c2c(n1Cc1cccc(OC)c1)-c1oncc1CC2 too.
stdout: false (0)

Further cases:
stdin: State whether the measured TGI reaches 60 µM, counting equality as reaching it, for O=C1N=NC(=O)N1c1cc(C(F)(F)F)cc(C(F)(F)F)c1
stdout: false (0)

stdin: Item: COc1ccc2oc(=O)c(-c3nc4ccccc4o3)cc2c1
stdout: true (1)

stdin: And what about the compound COC(=O)/C(=N\NC(=S)NN)C(C(=O)OC)C(=O)C(=O)Nc1cccc(C(F)(F)F)c1 (stereo not given) ?
stdout: true (1)

stdin: Proceed to CCC1c2[nH]c3ccccc3c2C[C@H]2C(=O)NC(CCCCNC(=O)OC(C)(C)C)C(=O)N12 (stereo not given in full)
stdout: true (1)

stdin: Likewise for O=C(c1nc2ccc(Cl)cc2[nH]c1=O)C(O)c1ccc2c(c1)OCO2 (stereo not given) ?
stdout: true (1)

stdin: Check CCOC(=O)N/N=C(\Cc1ccc([N+](=O)[O-])cc1)OCC too.
stdout: true (1)

stdin: Entry to check: Cc1ccc([N+](=O)[O-])cc1S(=O)(=O)Nc1ccc(C2=NN(C(=O)c3ccccc3)C(c3cccs3)C2)cc1 (stereo not given)
stdout: false (0)

stdin: Also, COc1ccc(C(=O)C(C(=O)C(=O)NC2C3CC4CC(C3)CC2C4)c2ccc(OC)cc2)cc1 (stereo not given) please.
stdout: true (1)

stdin: # iterate: CC(C)n1c(=O)n(C)c2cnc3cc(F)c(-c4ccc(OCCCN5CCCCC5)nc4)cc3c21
stdout: false (0)

stdin: Field entry: C/C=C1/CN2CCC34c5ccccc5N(C)C23C2CC1C4(C(=O)OC)C(O)O2 (stereo not given)
stdout: true (1)

----------
Tested on: UO-31 renal
method.notes: NCI tumour cell line growth inhibition, 48 h
A collection of compounds and their measured TGI

Some compounds with known TGI results, for comparison:
stdin: Bench note: what TGI did COc1cc2c(cc1OC)-c1c(oc3cc(OC4OC(CO)C(O)C(O)C4O)c(OC)cc3c1=O)C(O)O2 (stereo not drawn) show?
stdout: > 100 µM

stdin: Entry to check: COc1ccc(CCN2CCC(Nc3nc4ccccc4n3Cc3ccc(F)cc3)CC2)cc1
stdout: 2.62 µM

stdin: How about N#Cc1c(-c2cccc(Cl)c2)cc(-c2ccc(Cl)cc2)nc1N ?
stdout: 27.5 µM

stdin: What do we get for Cc1ccc([N+](=O)[O-])cc1S(=O)(=O)Nc1ccc(C2=NN(C(=O)c3ccccc3)C(c3cccs3)C2)cc1 (stereo not drawn) ?
stdout: > 100 µM

stdin: Next entry: CNS(=O)(=O)c1ccc2[nH]c(O)c(C3=Nc4ccccc4C3=O)c2c1
stdout: > 100 µM

***
stdin: // query TGI value for entry CC1OC(OC2C(CO)OC(O[C@H]3CC[C@@]4(C)C(=CC[C@H]5[C@@H]6C[C@@H]7O[C@](O)(CC[C@H](CO)COC8OC(CO)C(O)C(O)C8O)[C@@H](C)[C@@H]7[C@@]6(C)CC[C@@H]54)C3)C(OC3OC(C)C(O)C(O)C3O)C2O)C(O)C(O)C1O (stereo partly drawn)
stdout: > 100 µM

stdin: Next entry: CCOC(=O)c1c(-c2ccccc2)nc2c(OC)nccn12
stdout: > 100 µM

stdin: Would you mind doing COC(=O)C(Cc1c(C2Nc3ccccc3C2CC(NC(C)=O)C(=O)OC)[nH]c2ccccc12)NC(C)=O (stereo not drawn) as well?
stdout: > 100 µM
